B1: TPR t1 (parent)
chain: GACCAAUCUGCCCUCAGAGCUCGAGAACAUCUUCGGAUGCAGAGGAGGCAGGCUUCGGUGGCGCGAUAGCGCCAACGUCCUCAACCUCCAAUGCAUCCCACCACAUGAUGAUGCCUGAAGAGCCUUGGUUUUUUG

Variants of: B1
Test: polymerase ribozyme fitness, log enrichment relative to wild type (log ratio); higher = more active; in vitro selection for triplet polymerase activity
Recorded polymerase ribozyme fitness (log ratio) for the following variants

{"SEQUENCE_VARIANT": "G44C C53A C88U A100U", "polymerase ribozyme fitness (log ratio)": -0.527}
{"SEQUENCE_VARIANT": "A18C C56G C72U C124U", "polymerase ribozyme fitness (log ratio)": -0.737}
{"SEQUENCE_VARIANT": "C73G C123A", "polymerase ribozyme fitness (log ratio)": 0.232}
{"SEQUENCE_VARIANT": "U116C U130G", "polymerase ribozyme fitness (log ratio)": -1.58}
{"SEQUENCE_VARIANT": "A46G A95G", "polymerase ribozyme fitness (log ratio)": -0.108}
{"SEQUENCE_VARIANT": "C70G U78C C114U", "polymerase ribozyme fitness (log ratio)": -5.32}
{"SEQUENCE_VARIANT": "C104U G110A", "polymerase ribozyme fitness (log ratio)": -0.458}
{"SEQUENCE_VARIANT": "C13U A108U", "polymerase ribozyme fitness (log ratio)": -4.78}
{"SEQUENCE_VARIANT": "C40U G69A C72U C124A", "polymerase ribozyme fitness (log ratio)": -1.11}
{"SEQUENCE_VARIANT": "C4A A41C C64U", "polymerase ribozyme fitness (log ratio)": -1.54}
{"SEQUENCE_VARIANT": "C20A G71U", "polymerase ribozyme fitness (log ratio)": -2.48}
{"SEQUENCE_VARIANT": "C20A G36A A84G A118G", "polymerase ribozyme fitness (log ratio)": -5.67}
{"SEQUENCE_VARIANT": "C64A U78C C123U", "polymerase ribozyme fitness (log ratio)": -4.49}
{"SEQUENCE_VARIANT": "A18C G25U A41G C53U C124A", "polymerase ribozyme fitness (log ratio)": -6.92}
{"SEQUENCE_VARIANT": "C73G G77U C114U", "polymerase ribozyme fitness (log ratio)": -3.31}
